Ref: ChEMBL document CHEMBL1152467

test: Half life in Swiss mice (Mus musculus) infected with Plasmodium berghei ANKA at 90 mg/kg, intraperitoneally administered 64 hrs after infection; format: ADME, organism-based; design: dose 90 mg/kg, route intraperitoneal; conditions: in vivo, ip
attribute-measured: half-life (days)

{"smiles-str": "Clc1ccc2c(N3CCN(CCCN4CCN(c5ccnc6cc(Cl)ccc56)CC4)CC3)ccnc2c1", "reported": 16.1}

====

assay: Half life in healthy Swiss mouse at 90 mg/kg, ip; format: ADME, organism-based; parameters: dose 90 mg/kg, route intraperitoneal; conditions: in vivo

{"smiles-str": "Clc1ccc2c(N3CCN(CCCN4CCN(c5ccnc6cc(Cl)ccc56)CC4)CC3)ccnc2c1", "half-life / days": 17.8}
